- TESTED TARGET: A/TurkTurk/1/2005 (H5N1) inactivated viral preparation (Influenza A virus A/turkey/Turkey/1/2005 (H5N1))
- ASSAY METHOD TEXT: ELISA, inactivated virus
Consider the following binders; for each one, report its log10 of EC50.
Response schema: value (number) is log10 of EC50 in units of µg/mL.

Sample answers from the record:
R1a-B6 (VHH) VHH: QVQLVESGGGLVQPGGSLRLSCAASGSFFSRYRMGWYRQAPGEQRELVASIAYDGSTSYADPVKGRFTISRDNANTVHLQMYSLKPDDTAVYYCNLDPPGILYWGQGTQVTVSS	-0.36
R1a-C5 (VHH) VHH: QVQLVESGGGLVQPGGSLRLSCAASNDIFSFYTMGWYLQAIGKQREPVAVIGNGGNTNYAESVKGRFTISRDGAKNTAYLQMNSLKPEDTAVYYCMASGPGGLNVWGQGTQVTVSS	-0.82
R1a-A5 (VHH) VHH: QVQLVESGGGLVQPGGSLRLSCSASGSAVLFSTYPMSWYRQAPGKQRELVAAVTTDGSTSYADYAKGRFTISRDNAKNTVYLQMNSLKPEDTAVYYCNARDGFFNRYDYWGQGTQVTVSS	-0.89
R2b-E8 (VHH) VHH: QVQLVESGGGLVQPGGSLRLSCAASGSFFSRYRMGWYRQAPGEQRELVAGITYDDSTNYAGSVKGRFTISRDNAKNTVHLQMNSLKPEDTAVYYCNLNPPGNLYWGQGTQVTVSS	-0.05
R2a-G8 (VHH) VHH: QLQLAESGGGLVQAGGSLRLSCAASGSTLNNNAIGWFRQAPGKEREGVSCMNSRDGTTNYADSVKGRFTISRDVAKNTVYLQMNSLKPEDTAVYFCAVKGFAPFLIGCPWGKAEYDYWGQGTQVTVSS	0.29

Assign log10 of EC50 to the following record: R2b-D9 (VHH) VHH: QVQLVESGGGLVQPGGSLRLSCLASGSAFSLYTMGWYRQAPGNQRELVAAITSGESTNYADSVKGRFTISRDNAKNTVYLQMNSLKPEDTAVYYCNADPLSTGWGQYSYWGQGTQVTVSS
-0.12
